- test-description: Bioavailability and pharmacokinetics in normal rats
- Assay type: in vivo, rat
- measurement-conditions: female, CD, rat, plasma, iv, 50 mg/kg, rat plasma; I.V.
Counter-ions that a name gives are not always drawn.
endpoint-name: AUC (µg·h/mL)
All answers are understood in µg·h/mL, so give the number only.

What value of measured AUC is listed for CC(C)c1ccc2oc3nc(N)c(C(=O)O)cc3c(=O)c2c1 [Amlexanox (salt), sodium salt] ?
217

----------
- test-description: Pharmacokinetics and bioavailability in normal mice
- Type: in vivo, mouse
- measurement-conditions: female, C57BL/6; mouse plasma; oral; 100 mg/kg
- Experimental: Female C57BL/6 mice were used at 6 to 7 weeks of age. The animals were given food (Purina mouse chow, Pro Lab PMH 4018, Trademark of Agway, Syracuse, N.Y., USA) and water ad libitum. […] The samples were analysed by HPLC using 250×4.6 mm, Phenomenex C18 Luna, 5 micron column, 1 mL/min flow rate of mobile phase 73% of 25 mM sodium phosphate pH 7.5 and 27% acetonitrile; fluorescent deyection λexcitation=348 nm, λemission=404 nm. […]
Where a name gives a salt, the structure may show the parent alone.
endpoint-name: AUC (µg·h/mL)
All answers are understood in µg·h/mL, so give the number only.

What value of measured AUC is listed for CC(C)c1ccc2oc3nc(N)c(C(=O)O)cc3c(=O)c2c1 [Amlexanox (salt), sodium salt] ?
302

----------
- test-description: Pharmacokinetics and bioavailability in normal mice
- Assay type: in vivo, mouse
- measurement-conditions: female, C57BL/6; mouse plasma; oral; 10 mg/kg
Counter-ions that a name gives are not always drawn.
endpoint-name: Cmax
Quick note: unit goes after the number.

What value of measured Cmax is listed for CC(C)c1ccc2oc3nc(N)c(C(=O)O)cc3c(=O)c2c1 [Amlexanox (salt), sodium salt] ?
17600 ng/mL

----------
- test-description: Bioavailability and pharmacokinetics in normal rats
- Assay type: in vivo, rat
- measurement-conditions: female, CD, rat, plasma, po, 200 mg/kg, rat plasma, acid suspended in 1% methyl cellulose
- Protocol: Female CD rats (from 200 to 250 g body weight) were obtained from Charles River Canada Inc. (St. Constant, Quebec, Canada). […] The samples were analysed by HPLC using 250×4.6 mm, Phenomenex C18 Luna, 5 micron column, 1 mL/min flow rate of mobile phase 73% of 25 mM sodium phosphate pH 7.5 and 27% acetonitrile; fluorescent deyection λexcitation=348 nm, λemission=404 nm. […]
endpoint-name: AUC

What value of measured AUC is listed for `CC(C)c1ccc2oc3nc(N)c(C(=O)O)cc3c(=O)c2c1` ?
18600 ng·h/mL

----------
- test-description: Bioavailability and pharmacokinetics in normal rats
- Format: in vivo, rat
- measurement-conditions: female, CD, rat, plasma, iv, 10 mg/kg, rat plasma; I.V.
Counter-ions that a name gives are not always drawn.
endpoint-name: Cmax
Quick note: unit goes after the number.

What value of measured Cmax is listed for CC(C)c1ccc2oc3nc(N)c(C(=O)O)cc3c(=O)c2c1 [Amlexanox (salt), sodium salt] ?
4500 ng/mL

----------
- test-description: Bioavailability and pharmacokinetics in normal rats
- Format: in vivo, rat
- measurement-conditions: female, CD, rat, plasma, po, 50 mg/kg, rat plasma, acid suspended in 1% methyl cellulose
endpoint-name: MRT
Quick note: unit goes after the number.

What value of measured MRT is listed for `CC(C)c1ccc2oc3nc(N)c(C(=O)O)cc3c(=O)c2c1` ?
8.43 h

FYI, the data here is from patent US7772255B2.
